test system: THRa homodimer (NR concentration 90 nM); experiment: PBM binding z-score (relative to random genomic background probes); higher = stronger binding; sequences stand for … in GC…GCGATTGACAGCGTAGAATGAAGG
# PBM binding z-score >= 0.2 gives satisfied, anything below gives not satisfied

Form field: PBM binding z-score at least 0.2? Entry: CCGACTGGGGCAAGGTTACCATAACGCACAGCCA
satisfied

Form field: PBM binding z-score at least 0.2? Entry: TTTCGGAGGACACGAAGGTCAGAGCTTTCCAGAG
satisfied

Form field: PBM binding z-score at least 0.2? Entry: ATCTCTAGGTAAAGATAGTTCAGTGCATGCAAAT
satisfied

Form field: PBM binding z-score at least 0.2? Entry: CAAACTCGGTCAAAGGTCAAAGTCGAGCCAACCA
satisfied

Form field: PBM binding z-score at least 0.2? Entry: CCTACTGGGCCATCAGGACATTGATATCAACGTT
satisfied

Form field: PBM binding z-score at least 0.2? Entry: TTAGCAAGGTGAGCTGAGGTCGTTGATCCAACTC
satisfied

Form field: PBM binding z-score at least 0.2? Entry: TCGATTAGGTTACCAATGGGGCATTCAGCTTTCT
not satisfied

Form field: PBM binding z-score at least 0.2? Entry: CGTCCAAAGTCAGCAGGTCAGTGAAAGCGACGTG
satisfied

Form field: PBM binding z-score at least 0.2? Entry: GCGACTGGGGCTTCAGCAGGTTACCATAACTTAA
not satisfied

Form field: PBM binding z-score at least 0.2? Entry: CCGAATAGGTTATGGGGCATTCAGGCAACGGTGA
not satisfied

Form field: PBM binding z-score at least 0.2? Entry: ACTCGGAGGACAAAGGTTAGAGCTACGCCAGTGA
not satisfied

Form field: PBM binding z-score at least 0.2? Entry: CCTACTGGGGCATAAGGTTACCATAAGCCAGCCC
satisfied
